Target: human Cereblon WT GST-tagged protein (CRBN) (Homo sapiens)
Construct: purchased CISBIO 64BDCRBNPEH
Sequence (Q96SW2 whole entry): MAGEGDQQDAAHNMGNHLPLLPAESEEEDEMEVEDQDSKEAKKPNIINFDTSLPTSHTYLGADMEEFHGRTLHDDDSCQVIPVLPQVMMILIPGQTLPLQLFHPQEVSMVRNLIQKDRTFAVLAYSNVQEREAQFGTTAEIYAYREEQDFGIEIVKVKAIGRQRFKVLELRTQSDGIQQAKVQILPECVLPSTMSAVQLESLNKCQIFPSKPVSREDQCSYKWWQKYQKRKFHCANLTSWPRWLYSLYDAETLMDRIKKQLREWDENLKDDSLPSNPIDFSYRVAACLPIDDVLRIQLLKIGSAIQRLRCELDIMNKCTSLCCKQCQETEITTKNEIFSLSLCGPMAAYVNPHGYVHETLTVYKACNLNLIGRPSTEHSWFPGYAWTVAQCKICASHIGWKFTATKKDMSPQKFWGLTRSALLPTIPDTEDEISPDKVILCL
Assay: CRBN binding by HTRF (Cereblon binding kit)
Settings: 0.5 μM

- compound: "CS(=O)(=O)c1cccc(CNc2nc(Nc3ccc(N4CCN(Cc5ccc6c(c5)CN(N5CCC(=O)NC5=O)C6=O)CC4)cc3)ncc2C(F)(F)F)c1 [GT-07514]"
  Inhibition Rate at 0.5 μM (%): "a3 (30% < a3 ≤ 40%)"
- compound: "Cc1nc2c(F)cc(-c3nc(Nc4ccc(CN5CCN(CC6CCN(c7cccc8c7C(=O)N(N7CCC(=O)NC7=O)C8=O)CC6)CC5)cn4)ncc3F)cc2n1C(C)C [GT-06663]"
  Inhibition Rate at 0.5 μM (%): "a2 (20% < a2 ≤ 30%)"
- compound: "O=C1CCN(N2Cc3cc(CN4C[C@@H]5C[C@H]4CN5c4ccc(-c5cc(F)c6c(c5)C(=O)N(C(C(=O)Nc5nccs5)c5ncn7c5CCC7)C6)cc4)ccc3C2=O)C(=O)N1 (stereo partly shown) [GT-05114]"
  Inhibition Rate at 0.5 μM (%): "a2 (20% < a2 ≤ 30%)"
- compound: "O=C1CCN(N2Cc3cc(CN4CCC(n5cc(NC(=O)c6coc(-c7ccnc(NCC8CC8)c7)n6)c(C(F)F)n5)CC4)ccc3C2=O)C(=O)N1 [GT-04951]"
  Inhibition Rate at 0.5 μM (%): "a3 (30% < a3 ≤ 40%)"
- compound: "O=C1CCN(N2Cc3cc(CN4CCC(n5cc(NC(=O)c6cnn7ccc(N8C[C@H]9C[C@@H]8CO9)nc67)c(C(F)F)n5)CC4)ccc3C2=O)C(=O)N1 [GT-05028]"
  Inhibition Rate at 0.5 μM (%): "a2 (20% < a2 ≤ 30%)"

====

Reported inhibition at 0.5 µM values follow for various compounds
Test system: Human Multiple myeloma cell line (MM.1S)
Test: Inhibition of MM.1S cell proliferation (CellTiter luminescent viability)
Format: cell-based
Conditions: Homo sapiens, MM1.S, Table IG1, FAK inhibitor-based, 500 nM, 96 hours, read-out: Inhibition Rate at 500 nM (%)

- compound: "CN(c1cccc(CNc2nc(Nc3ccc(N4CCN(CC5CCN(c6ccc7c(c6)C(=O)N(N6CCC(=O)NC6=O)C7=O)CC5)CC4)cc3)ncc2C(F)(F)F)c1)S(C)(=O)=O"
  inhibition at 0.5 µM: "30 to 40%"
- compound: "CN(c1nccnc1CNc1nc(Nc2ccc(N3CCN(CC4CCN(c5ccc6c(c5)C(=O)N(N5CCC(=O)NC5=O)C6=O)CC4)CC3)cc2)ncc1C(F)(F)F)S(C)(=O)=O"
  inhibition at 0.5 µM: "80 to 100%"
- compound: "CNC(=O)c1ccccc1Nc1cc(Nc2ccc(N3CCN(Cc4ccc5c(c4)CN(N4CCC(=O)NC4=O)C5=O)CC3)cc2OC)ncc1C(F)(F)F"
  inhibition at 0.5 µM: "60 to 80%"
- compound: "CNC(=O)c1ccccc1Nc1cc(Nc2cc(C)c(C3CCN(Cc4ccc5c(c4)CN(N4CCC(=O)NC4=O)C5=O)CC3)cc2OC(C)C)ncc1C(F)(F)F"
  inhibition at 0.5 µM: "40 to 60%"
- compound: "CN(c1nccnc1CNc1nc(Nc2ccc(N3CCC(N4CCN(CC5CCN(c6cccc7c6C(=O)N(N6CCC(=O)NC6=O)C7=O)CC5)CC4)CC3)cc2)ncc1C(F)(F)F)S(C)(=O)=O"
  inhibition at 0.5 µM: "80 to 100%"
- compound: "CNC(=O)c1ccccc1Nc1cc(Nc2ccc(N3CCC(N(C)Cc4ccc5c(c4)CN(N4CCC(=O)NC4=O)C5=O)CC3)cc2OC)ncc1C(F)(F)F"
  inhibition at 0.5 µM: "40 to 60%"
- compound: "CN(c1cccc(CNc2nc(Nc3ccc(N4CCC(N5CCN(CC6CCN(c7cccc8c7C(=O)N(N7CCC(=O)NC7=O)C8=O)CC6)CC5)CC4)cc3)ncc2C(F)(F)F)c1)S(C)(=O)=O"
  inhibition at 0.5 µM: "60 to 80%"
- compound: "CNC(=O)c1ccccc1Nc1cc(Nc2ccc(N3CCOCC3)cc2OC)ncc1C(F)(F)F [PND-1186, reference compound]"
  inhibition at 0.5 µM: "20 to 30%"

====

Test system: Human B-Cell Lymphoma Cells (RPMI-8226)
Assay: Inhibition of RPMI-8226 cell proliferation (CellTiter luminescent viability)
Assay type: cell-based
Settings: Table IA4, IRAK4 inhibitor-based, RPMI-8226, 500 nM, 96 hours, read-out: Inhibition Rate at 500 nM (%)
Procedure: The tumor cells used herein were cultured in a cell culture medium listed in table 3 at 37 °C in an incubator with 5% CO2. […] The IC50 values of the compounds of the present disclosure (including the compounds in Table 1, Table 2, and Examples 1-468) were determined using the CellTiter-Meiluncell Luminescent Cell Viability Assay Kit from Dalian Meilun Biotech Co., Ltd. The detailed procedure is as follows: Tumor cells were seeded in 96-well cell culture plates at the densities specified in Table 4. […]

- compound: "CC(C)Nc1cc(-n2ccc3cc(C#N)cnc32)ncc1C(=O)NC1CCN(Cc2ccc3c(c2)CN(N2CCC(=O)NC2=O)C3=O)CC1"
  measured_on: "Human B-Cell Lymphoma Cells (RPMI-8226)"
  inhibition at 0.5 µM: "40 to 60%"
- compound: "CC(C)(O)c1cc2nc(C3CCN(Cc4ccc5c(c4)CN(N4CCC(=O)NC4=O)C5=O)CC3)oc2cc1NC(=O)c1cccc(C(F)(F)F)n1"
  measured_on: "Human B-Cell Lymphoma Cells (RPMI-8226)"
  inhibition at 0.5 µM: "15 to 20%"
- compound: "O=C1CCN(N2C(=O)c3ccc(N4CCC(N5CCC(CN6CCC(n7cc(NC(=O)c8cnn9ccc(N%10CCOCC%10)nc89)c(C(F)F)n7)CC6)CC5)CC4)cc3C2=O)C(=O)N1"
  measured_on: "Human B-Cell Lymphoma Cells (RPMI-8226)"
  inhibition at 0.5 µM: "30 to 40%"
- compound: "O=C1CCN(N2Cc3cc(CN4CCN(c5ccc(-n6cc(NC(=O)c7coc(-c8ccnc(NCC(F)(F)F)c8)n7)c(C(F)F)n6)cc5)CC4)ccc3C2=O)C(=O)N1"
  measured_on: "Human B-Cell Lymphoma Cells (RPMI-8226)"
  inhibition at 0.5 µM: "60 to 80%"
- compound: "O=C1CCN(N2C(=O)c3cccc(N4CCC(CN5CCC(n6cc(NC(=O)c7cnn8ccc(N9CCOCC9)nc78)c(C(F)F)n6)CC5)CC4)c3C2=O)C(=O)N1"
  measured_on: "Human B-Cell Lymphoma Cells (RPMI-8226)"
  inhibition at 0.5 µM: "30 to 40%"
- compound: "O=C1CCN(N2C(=O)c3ccc(N4CCC(N5CCC(CN6CCC(n7cc(NC(=O)c8cnn9ccc(N%10C[C@H]%11C[C@@H]%10CO%11)nc89)c(C(F)F)n7)CC6)CC5)CC4)cc3C2=O)C(=O)N1"
  measured_on: "Human B-Cell Lymphoma Cells (RPMI-8226)"
  inhibition at 0.5 µM: "15 to 20%"
- compound: "CC(C)(O)c1cc2nn(C3CCN(Cc4ccc5c(c4)C(=O)N(N4CCC(=O)NC4=O)C5=O)CC3)cc2cc1NC(=O)c1cccc(C(F)(F)F)n1"
  measured_on: "Human B-Cell Lymphoma Cells (RPMI-8226)"
  inhibition at 0.5 µM: "25 to 30%"
- compound: "COc1cc2nn([C@H]3CC[C@H](CN4C5CC4CN(c4ccc6c(c4)C(=O)N(N4CCC(=O)NC4=O)C6=O)C5)CC3)cc2cc1NC(=O)c1cccc(C(F)(F)F)n1"
  measured_on: "Human B-Cell Lymphoma Cells (RPMI-8226)"
  inhibition at 0.5 µM: "25 to 30%"
- compound: "Cc1cc(-c2nc(C(=O)Nc3cc4oc(N5CCN(Cc6ccc7c(c6)C(=O)N(N6CCC(=O)NC6=O)C7=O)CC5)nc4nc3N3CC[C@@H](O)C3)co2)ccn1"
  measured_on: "Human B-Cell Lymphoma Cells (RPMI-8226)"
  inhibition at 0.5 µM: "20 to 25%"
- compound: "CC[C@@H]1[C@H](F)C(=O)N[C@@H]1COc1nccc2cc(C(N)=O)c(OC)cc12 [PF06650833, PF-06650833, reference compound]"
  measured_on: "Human B-Cell Lymphoma Cells (RPMI-8226)"
  inhibition at 0.5 µM: "10 to 15%"
- compound: "COc1cc2nn([C@H]3CC[C@H](CN4CCN(c5cccc6c5C(=O)N(N5CCC(=O)NC5=O)C6=O)CC4)CC3)cc2cc1NC(=O)c1cccc(C(F)(F)F)c1"
  measured_on: "Human B-Cell Lymphoma Cells (RPMI-8226)"
  inhibition at 0.5 µM: "30 to 40%"

====

# inhibition at 0.01 µM per record follows
System: Human diffuse large B-cell lymphoma cell line (TMD8)
Experiment: Inhibition of TMD8 cell proliferation (CellTiter luminescent viability)
Type: cell-based
Conditions: Homo sapiens, TMD8, 96 h, Table IF1, AR inhibitor-based, TMD8, 10 nM, read-out: Inhibition Rate at 10 nM (%)
measure: inhibition at 0.01 µM

- compound: "CC1(C)[C@H](NC(=O)c2ccc(N3CCC(CN4CCN(c5cc(F)c6c(c5)C(=O)N(N5CCC(=O)NC5=O)C6=O)CC4)CC3)nc2)C(C)(C)[C@H]1Oc1ccc(C#N)c(Cl)c1"
  measured_result: "15 to 20%"
- compound: "CC1(C)[C@H](NC(=O)c2ccc(N3CCC(CN4C5CC4CN(c4ccc6c(c4)C(=O)N(N4CCC(=O)NC4=O)C6=O)C5)CC3)nc2)C(C)(C)[C@H]1Oc1ccc(C#N)c(Cl)c1"
  measured_result: "10 to 15%"
- compound: "N#Cc1ccc(O[C@H]2CC[C@H](NC(=O)c3ccc(N4CCC(CN5C6CCC5CN(c5ccc7c(c5)C(=O)N(N5CCC(=O)NC5=O)C7=O)C6)CC4)nn3)CC2)cc1Cl"
  measured_result: "15 to 20%"
- compound: "CC1(C)[C@H](NC(=O)c2ccc(N3CCC(CN4CCN(C5CCN(c6ccc7c(c6)C(=O)N(N6CCC(=O)NC6=O)C7=O)CC5(F)F)CC4)CC3)nc2)C(C)(C)[C@H]1Oc1ccc(C#N)c(Cl)c1 (stereo partly shown)"
  measured_result: "5 to 10%"
- compound: "CC1(C)[C@H](NC(=O)c2ccc(N3CCC(CN4CC5CC(C4)N5c4ccc5c(c4)C(=O)N(N4CCC(=O)NC4=O)C5=O)CC3)nc2)C(C)(C)[C@H]1Oc1ccc(C#N)c(Cl)c1"
  measured_result: "10 to 15%"
- compound: "N#Cc1ccc(O[C@H]2CC[C@H](NC(=O)c3ccc(N4CCC(CN5CC6CCC(C5)N6c5ccc6c(c5)C(=O)N(N5CCC(=O)NC5=O)C6=O)CC4)nn3)CC2)cc1Cl"
  measured_result: "40 to 60%"
- compound: "CC1(C)[C@H](NC(=O)c2ccc(N3CCC(CN4CC5CCC4CN5c4ccc5c(c4)C(=O)N(N4CCC(=O)NC4=O)C5=O)CC3)nc2)C(C)(C)[C@H]1Oc1ccc(C#N)c(Cl)c1 (stereo partly shown)"
  measured_result: "15 to 20%"
- compound: "N#Cc1ccc(O[C@H]2CC[C@H](NC(=O)c3ccc(N4CCC(CN5C[C@@H]6C[C@H]5CN6c5ccc6c(c5)C(=O)N(N5CCC(=O)NC5=O)C6=O)CC4)nn3)CC2)cc1Cl"
  measured_result: "10 to 15%"
- compound: "N#Cc1ccc(O[C@H]2CC[C@H](NC(=O)c3ccc(N4CCC(CN5CCN(C6CCN(c7ccc8c(c7)C(=O)N(N7CCC(=O)NC7=O)C8=O)CC6(F)F)CC5)CC4)nn3)CC2)cc1Cl (stereo partly shown)"
  measured_result: "5 to 10%"
- compound: "CC1(C)[C@H](NC(=O)c2ccc(N3CCC(CN4CC5CCC(C4)N5c4ccc5c(c4)C(=O)N(N4CCC(=O)NC4=O)C5=O)CC3)nc2)C(C)(C)[C@H]1Oc1ccc(C#N)c(Cl)c1"
  measured_result: "25 to 30%"
